Target: Follicle Stimulating Hormone Receptor (FSHR) (Homo sapiens)
Construct: HA (N)
Assay: HTRF cAMP agonist assay, FSHR, transiently transfected CHO-K1 cells
Conditions: CHO-K1 cells transiently expressing human FSHR, read-out: IC50 FSHR LANCE CAMP
Rule: IC50 below 30 nM gives y, anything at or above gives n.

Exercise: Record COc1cc2c(cc1-c1cncc(C(N)=O)c1)-c1c(c(C(=O)N3CCN(C#N)CC3C)nn1-c1cc(Cl)cc(Cl)c1)CC2 (stereo not drawn) : is its IC50 strictly below 30 nM?
Key: y

Exercise: Consider the molecule `COc1cc2c(cc1-c1cccnc1)-c1c(c(C(=O)N3CCNC(=O)C3(C)C)nn1-c1cc(Cl)cc(Cl)c1)CC2` . Is its IC50 strictly less than 30 nM?
Key: n

Exercise: Please determine if `COc1cc2c(cc1-c1ccn(C)n1)-c1c(c(C(=O)N(C)C(C)(C)C)nn1-c1ccsc1)C2` is below 30 nM in terms of IC50.
Key: n

Exercise: Is it true that IC50 reported for COc1cc2c(cc1-c1cncc(C(N)=O)c1)-c1c(c(C(=O)N(C)C(C)(C)C)nn1-c1cc(Cl)cc(Cl)c1)[S+]([O-])C2 (single isomer, unassigned) [Compound 3-06] is less than 30 nM?
Key: n

Exercise: Threshold test, IC50 < 30 nM: `COc1cc2c(cc1-c1cccnc1)-c1c(c(C(=O)N3CCNC(=O)C3(C)C)nn1-c1ccccn1)CC2`
Key: n

Exercise: Below 30 nM on IC50? Entry `COc1cc2c(cc1-c1cncc(C(N)=O)c1)-c1c(c(C(=O)N3COCC3(C)C)nn1-c1cc(Cl)cc(Cl)c1)CCO2`
Key: y

###

Biological target: Follicle Stimulating Hormone Receptor (FSHR) (Homo sapiens)
Construct: HA (N)
Assay: HTRF cAMP agonist assay, FSHR, transiently transfected CHO-K1 cells
Conditions: CHO-K1 cells transiently expressing human FSHR, read-out: IC50 FSHR LANCE CAMP
Kindly state pIC50 for each of the entries shown.
# pIC50: negative log10 of molar concentration; output just the value

Exercise: What value of pIC50 has been recorded for this entry: COc1cc2c(cc1-c1cncc(C(N)=O)c1)-c1c(c(C(=O)N3COCC3(C)C)nn1-c1cc(Cl)cc(Cl)c1)CC2 [Compound 8-32]
Key: 9.08

Exercise: Sample COc1cc2c(cc1-c1cncc(C(N)=O)c1)-c1c(c(C(=O)N3CCC(=O)NCC3(C)C)nn1-c1cc(Cl)cc(Cl)c1)CC2 [Compound 8-04A] — what was its pIC50?
Key: 8.01

Exercise: Recorded pIC50 for COc1cc2c(cc1-c1cncc(C(N)=O)c1)-c1c(c(C(=O)N3[C@@H]4CC[C@H]3CN(C)C4)nn1-c1cc(Cl)cc(Cl)c1)CC2 [Compound 8-18] , please?
Key: 7.75

Exercise: For the molecule shown here, COc1cc2c(cc1-c1ccn(C)n1)-c1c(c(C(=O)N3CCOCC3(C)C)nn1-c1ccsc1)C2 [Compound 5-07] , give the reported pIC50.
Key: 6.94

###

Biological target: Follicle Stimulating Hormone Receptor (FSHR) (Homo sapiens)
Construct: HA (N)
Assay: HTRF cAMP agonist assay, FSHR, transiently transfected CHO-K1 cells
Settings: CHO-K1 cells transiently expressing human FSHR, read-out: IC50 FSHR LANCE CAMP
Hi there, I'd appreciate the recorded pIC50 for every entry that follows.
// scale note: pIC50 = -log10(conc_M); give the bare number

Exercise: What measured pIC50 goes with `COc1cc2c(cc1-c1cncc(C(N)=O)c1)-c1c(c(C(=O)N3[C@H](C)CNC[C@@H]3C)nn1-c1cc(Cl)cc(Cl)c1)S(=O)(=O)C2` ?
Key: 7.81

Exercise: GET /values?readout=pIC50&item= `COc1cc2c(cc1-c1cncc(C(N)=O)c1)-c1c(c(C(=O)N3CCOCC3(C)C)nn1-c1cc(Cl)cc(Cl)c1)OC2`
Key: 8.46

Exercise: Quick one: pIC50 of COc1cc2c(cc1-c1cncc(C(N)=O)c1)-c1c(c(C(=O)N(C)C3CCN(C)C3)nn1-c1cc(Cl)cc(Cl)c1)CC2 (stereo not drawn) ?
Key: 5.66

Exercise: Need pIC50 of COc1cc2oc3c(C(=O)N4CCOCC4(C)C)nn(-c4ccsc4)c3c2cc1-c1cncc(C#N)c1 [Compound 4-03] , thanks.
Key: 6.24

Exercise: Consider the compound `COc1cc(C(N)=O)cc(-c2cc3c(cc2OC)CCc2c(C(=O)N(C)C(C)(C)C)nn(-c4cc(Cl)cc(Cl)c4)c2-3)n1` and give its measured pIC50.
Key: 7.90

Exercise: # lookup: pIC50 of COc1cc2c(cc1-c1cncc(C(N)=O)c1)-c1c(c(C(=O)N(C)C(C)C3CC3)nn1-c1cc(Cl)cc(Cl)c1)CC2 (stereo not drawn)
Key: 8.17

Exercise: Which pIC50 is reported for this compound? COc1cc2c(cc1-c1cncc(C(N)=O)c1)-c1c(c(C(=O)N3CCNCC3C)nn1-c1cc(Cl)cc(Cl)c1)CC2 (stereo not drawn)
Key: 7.68

Exercise: Entry COc1cc2c(cc1-c1cncc(C(N)=O)c1)-c1c(c(C(=O)N(C)C3CCS(=O)(=O)C3)nn1-c1cc(Cl)cc(Cl)c1)CC2 (stereo not drawn) : reported pIC50 = ?
Key: 6.75

Exercise: Look up pIC50: `COc1cc2c(cc1-c1cncc(C(N)=O)c1)-c1c(c(C(=O)N3CCOCC3(C)C)nn1-c1cnccn1)CC2`
Key: 7.17

Exercise: Entry `COc1cc2c(cc1-c1cccnc1)-c1c(c(C(=O)N3CCOCC3(C)C)nn1-c1cc(Cl)cc(Cl)c1)CC2` has what pIC50?
Key: 8.22

Exercise: Reported pIC50 for `COc1cc2c(cc1-c1cncc(C(N)=O)c1)-c1c(c(C(=O)N3CCOCC3(C)C)nn1CC(C)C)CC2` : what is it?
Key: 7.85

Exercise: Which value of pIC50 has been reported for `COc1cc(Cl)cc(-n2nc(C(=O)N3CCOCC3(C)C)c3c2-c2cc(-c4cncc(C(N)=O)c4)c(OC)cc2CC3)c1` in the records?
Key: 8.41

Exercise: Recorded pIC50 of `COc1cc2oc3c(C(=O)N4CCOCC4(C)C)nn(-c4ccsc4)c3c2cc1-c1ccn(C)n1` , please.
Key: 5.55

Exercise: Entry COc1cc2c(cc1-c1cncc(C(N)=O)c1)-c1c(c(C(=O)N3CCN(C(=O)OC(C)(C)C)C[C@@H]3C(C)C)nn1-c1cc(Cl)cc(Cl)c1)CC2 (stereo in doubt) [Compound 8-25A] : reported pIC50 = ?
Key: 6.12

Exercise: Which pIC50 value belongs to `COc1cc2c(cc1-c1cncc(C(N)=O)c1)-c1c(c(C(=O)N(C)C(C)(C)C)nn1-c1cc(Cl)cc(Cl)c1)SC2` ?
Key: 8.41

Exercise: Would you mind telling me what pIC50 value was observed for `COc1cc2c(cc1-c1ccncc1)-c1c(c(C(=O)N3CCOCC3(C)C)nn1-c1cc(F)cc(F)c1)CC2` ?
Key: 6.43

Exercise: Item `COc1cc2c(cc1-c1ccn(C)n1)-c1c(c(C(=O)N3CCOCC3(C)C)nn1-c1cc(Cl)cc(Cl)c1)C2` has what recorded pIC50?
Key: 6.25

Exercise: Please report the recorded pIC50 for `COc1cc2c(cc1-c1ccn(C)n1)-c1c(c(C(=O)N3CCOCC3(C)C)nn1-c1cc(Cl)cc(Cl)c1)SC2` .
Key: 6.49

Exercise: Quick check: pIC50 of `COc1cc2c(cc1-c1cncc(C(N)=O)c1)-c1c(c(C(=O)N3COCC3(C)C)nn1-c1cc(Cl)cc(Cl)c1)SC2` ?
Key: 8.51

Exercise: For `CC1(C)C(=O)NCCN1C(=O)c1nn(-c2ccccn2)c2c1CCc1ccc(-c3cccnc3)cc1-2` , what is its reported pIC50?
Key: 5.17

Exercise: What measured pIC50 goes with `COc1cc2c(cc1-c1cncc(C(N)=O)c1)-c1c(c(C(=O)N3[C@@H](C)CNC[C@@H]3C)nn1-c1cc(Cl)cc(Cl)c1)CC2` ?
Key: 7.46

###

Biological target: Follicle Stimulating Hormone Receptor (FSHR) (Homo sapiens)
Construct: HA (N)
Sequence (P23945 18-695): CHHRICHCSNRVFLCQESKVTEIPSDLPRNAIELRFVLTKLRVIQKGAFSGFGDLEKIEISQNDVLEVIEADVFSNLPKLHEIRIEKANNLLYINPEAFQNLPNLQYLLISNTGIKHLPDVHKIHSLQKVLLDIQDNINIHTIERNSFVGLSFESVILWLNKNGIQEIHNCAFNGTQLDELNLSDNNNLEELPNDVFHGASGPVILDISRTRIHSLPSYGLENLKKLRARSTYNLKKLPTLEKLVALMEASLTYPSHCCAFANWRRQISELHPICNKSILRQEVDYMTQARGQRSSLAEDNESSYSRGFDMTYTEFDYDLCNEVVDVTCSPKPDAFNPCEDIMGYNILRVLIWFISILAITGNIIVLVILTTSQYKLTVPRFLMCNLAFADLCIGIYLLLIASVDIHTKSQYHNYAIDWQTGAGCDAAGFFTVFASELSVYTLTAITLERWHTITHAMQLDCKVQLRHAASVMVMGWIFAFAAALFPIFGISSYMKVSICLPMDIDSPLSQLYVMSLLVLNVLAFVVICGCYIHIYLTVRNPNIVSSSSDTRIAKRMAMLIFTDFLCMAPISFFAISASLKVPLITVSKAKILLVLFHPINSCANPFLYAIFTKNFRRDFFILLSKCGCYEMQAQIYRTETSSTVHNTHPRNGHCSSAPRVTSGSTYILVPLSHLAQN
Experiment: HTRF cAMP agonist assay, FSHR, transiently transfected CHO-K1 cells
Conditions: CHO-K1 cells transiently expressing human FSHR, read-out: IC50 FSHR LANCE CAMP
Endpoint name: pIC50
Entry type: numeric. Quantity: pIC50, the -log10 of concentration in molar units.

Exercise: Given the entry COc1cc2c(cc1-c1cncc(C(N)=O)c1)-c1c(c(C(=O)N3COCC3(C)C)nn1-c1cc(Cl)cc(Cl)c1)OC2 [Compound 12-04] , report its measured pIC50.
Key: 8.29

Exercise: Suppose we examine the compound CC1(C)C(=O)NCCN1C(=O)c1nn(-c2ccccn2)c2c1CCc1ccc(-c3cncc(C(N)=O)c3)cc1-2 [Compound 8-75] ; what pIC50 value has been reported?
Key: 4.56

Exercise: Requested read-out: pIC50. Entry: COc1cc2c(cc1-c1cncc(C(N)=O)c1)-c1c(c(C(=O)N3CCNC(=O)C3)nn1-c1cc(Cl)cc(Cl)c1)CC2 [Compound 8-82]
Key: 7.10

Exercise: I would be grateful if you could share the reported pIC50 for COc1cc2c(cc1-c1cncc(C(N)=O)c1)-c1c(c(C(=O)N3CCC4CN(C(=O)OC(C)(C)C)CCC43)nn1-c1cc(Cl)cc(Cl)c1)CC2 (stereo not shown) [Compound 8-23A] .
Key: 6.03

Exercise: Endpoint output: pIC50 of COc1cc2c(cc1-c1cncc(C(N)=O)c1)-c1c(c(C(=O)N3C4CCC3CN(C)C4)nn1-c1cc(Cl)cc(Cl)c1)CC2 [Compound 8-15] . Value?
Key: 7.48

Exercise: Query (compound): COc1cc2c(cc1-c1ccn(C)n1)-c1c(c(C(=O)N(C)C(C)(C)C)nn1-c1cc(Cl)cc(Cl)c1)C2 [Compound 5-06] ; field requested: pIC50
Key: 6.31

Exercise: Recorded pIC50 for COc1cc2c(cc1-c1cncc(C(N)=O)c1)-c1c(c(C(=O)N3CCN(CCC(=O)O)CC3(C)C)nn1-c1cc(Cl)cc(Cl)c1)CC2 [Compound 8-65] , please?
Key: 5.88

Exercise: Entry COc1cc2c(cc1-c1cncc(C(N)=O)c1)-c1c(c(C(=O)N3CCCC(=O)C3(C)C)nn1-c1cc(Cl)cc(Cl)c1)CC2 [Compound 8-67] has what pIC50?
Key: 8.37

Exercise: Requested read-out: pIC50. Entry: COc1cc2c(cc1-c1cncc(C(N)=O)c1)-c1c(c(C(=O)N3CCC4C3CCN4C(=O)OC(C)(C)C)nn1-c1cc(Cl)cc(Cl)c1)CC2 (stereo not shown) [Compound 8-31A]
Key: 6.84

Exercise: Given the entry COc1cc2c(cc1-c1ccn(C)n1)-c1c(c(C(=O)N3CCOCC3(C)C)nn1-c1cc(Cl)cc(Cl)c1)OC2 [Compound 2-05] , report its measured pIC50.
Key: 6.20

Exercise: Given COc1cc2oc3c(C(=O)N(C)C(C)(C)C)n(-c4ccsc4)nc3c2cc1-c1cncc(C(N)=O)c1 [Compound 4-04A] , state its recorded pIC50.
Key: 5.87

Exercise: Recorded pIC50 for COc1cc2c(cc1-c1cncc(C(N)=O)c1)-c1c(c(C(=O)N(C)C(C)(C)C)nn1-c1cc(Cl)cc(Cl)c1)OC2 [Compound 2-02] , please?
Key: 8.70

Exercise: Please give the measured pIC50 for this compound: COc1cc2c(cc1-c1cncc(C(N)=O)c1)-c1c(c(C(=O)N3CCNC(=O)C3(C)C)nn1-c1ccsc1)CC2 [Compound 12-23]
Key: 7.44
